Please provide measured signal enhancement for the entries that follow.
# experimental.system: E3 ubiquitin-protein ligase Mdm2 (Homo sapiens) (UniProt Q00987)
# Sequence (Q00987 whole entry, looked up, the tested form may be a part): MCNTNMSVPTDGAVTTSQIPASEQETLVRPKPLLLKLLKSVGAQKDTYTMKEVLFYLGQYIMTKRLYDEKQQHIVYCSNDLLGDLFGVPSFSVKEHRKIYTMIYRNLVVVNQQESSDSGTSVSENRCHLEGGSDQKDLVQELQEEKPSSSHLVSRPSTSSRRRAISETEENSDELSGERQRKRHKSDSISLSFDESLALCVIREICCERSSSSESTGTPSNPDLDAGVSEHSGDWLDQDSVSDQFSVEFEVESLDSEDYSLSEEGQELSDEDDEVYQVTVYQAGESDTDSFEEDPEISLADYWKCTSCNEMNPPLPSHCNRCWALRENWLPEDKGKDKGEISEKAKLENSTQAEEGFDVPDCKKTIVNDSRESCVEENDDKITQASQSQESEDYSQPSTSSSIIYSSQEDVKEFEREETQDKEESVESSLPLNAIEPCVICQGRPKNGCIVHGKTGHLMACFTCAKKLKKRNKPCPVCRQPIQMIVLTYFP
# assay.notes: increase of MDM2 autoubiquitination reporter luminescence – cell-based, 1536-well, MDM2 E3 ligase inhibitor project, primary screen (AID 1230);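 also: luminescence tracks abundance of the self-degrading MDM2-luciferase fusion protein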
# experimental.parameters: cell-based MDM2 ubiquitination luciferase reporter, 2 h; at 5 µM; hits give high values; 0 = plate control, 100 = twice control, blank-subtracted
The campaign covered roughly 210,000 compounds. About 220 (0.1%) were called active. This excerpt belongs to a sample that is enriched for actives.
Expressed in %, but write only the number.

Input: Which measured signal enhancement value corresponds to O=c1[nH]n(-c2cccc(Cl)c2)c2ncccc12 ?
Output: -4.4

Input: What do we get for CC(C)CCNC(=O)C1CCC(CNc2c(N3CCC(C)CC3)c(=O)c2=O)CC1 (stereo unspecified) ?
Output: -5.11

Input: What do we get for Oc1c(CN2CCN(c3ccc(F)cc3)CC2)cc(Cl)c2cccnc12 ?
Output: 9.75

Input: What do we get for C/C=C\C=C\C(=O)N1CC2(CC(c3cccc(NC(=O)/C(C)=C\C)c3)=NO2)C[C@H]1C(N)=O (stereo partly specified) ?
Output: -14.1

Input: What do we get for CS(=O)(=O)c1ccc(Cl)c(NC(=O)Nc2ccccc2)c1 ?
Output: -9.46

Input: What do we get for CN(C)c1cc(-c2ccc(F)cc2)oc(=O)c1Cl ?
Output: -15.5

Input: What do we get for Cc1cc(=O)oc2cc(OCCC[n+]3ccccc3)ccc12 ?
Output: -9.35

Input: What do we get for O=C(NC(=O)c1cc(OCC(F)(F)F)ccc1OCC(F)(F)F)Nc1ccccc1 ?
Output: -3.24

Input: What do we get for CCc1cc2c(=O)c(-c3ccc(F)cc3)c(C(F)(F)F)oc2cc1OCC(=O)O ?
Output: -6.75

Input: What do we get for CCOC(=O)CNC(=O)CSc1nnnn1-c1cc(C)ccc1C ?
Output: 16.5

Input: What do we get for CC1=NOC(=O)/C1=C\c1ccccc1 ?
Output: -4.01

* * *

# experimental.system: E3 ubiquitin-protein ligase Mdm2 (Homo sapiens) (UniProt Q00987)
# assay.notes: increase of MDM2 autoubiquitination reporter luminescence – cell-based, 1536-well, MDM2 E3 ligase inhibitor project, primary screen (AID 1230);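 also: luminescence tracks abundance of the self-degrading MDM2-luciferase fusion protein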
# experimental.parameters: cell-based MDM2 ubiquitination luciferase reporter, 2 h; at 5 µM; 0 = plate control, 100 = twice control, blank-subtracted
The campaign covered roughly 210,000 compounds. About 220 (0.1%) were called active.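 How the source made its calls: active means signal enhancement of 30% or more; inactive means the rest.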 The sample as a whole holds a higher share of actives than the screen did.
Returns: one label drawn from active, inactive

Input: Give the logged outcome of this assay for the following compound: Clc1ccc(CSc2nnc3c(n2)[nH]c2ccccc23)cc1
Output: inactive

Input: What do we get for CCS(=O)(=O)Nc1cc(C(=O)OC)ccc1C(=O)OC ?
Output: inactive

Input: What do we get for CC(=O)Nc1ccc(OCC(=O)NCc2ccc(C)cc2)cc1 ?
Output: inactive

Input: What do we get for O=C(NN1C(=O)C2C(C1=O)C1C=CC2C12CC2)c1ccccc1Cl (configuration not stated) ?
Output: inactive

Input: What do we get for CC1(C)CCSC(/C=C/c2ccccc2)=N1 ?
Output: inactive

Input: What do we get for C/C(=N\NC(=O)c1nc(C)cc(C)n1)c1ccccc1 ?
Output: inactive

Input: What do we get for Cn1nnc2cc(C(=O)NCCC3=CCCCC3)ccc21 ?
Output: inactive

Input: What do we get for C/C(=N\NC(N)=S)c1cccnc1 ?
Output: active

Input: What do we get for CNC(=S)NNC(=O)c1oc2nc(-c3ccccc3)cc(-c3ccco3)c2c1N ?
Output: inactive

Input: What do we get for Clc1ccc(-c2cc(-c3ccccn3)on2)c(Cl)c1 ?
Output: inactive

Input: What do we get for C/C(=N\NC(=O)c1cccnc1)c1ccc(-c2ccccc2)cc1 ?
Output: inactive

Input: What do we get for O=S(=O)(Nc1ccc(OC(F)(F)F)cc1)c1cccc2nonc12 ?
Output: inactive

Input: What do we get for CC(=O)NNC(=O)c1csc(Cc2c(Cl)sc3ccc(Cl)cc23)n1 ?
Output: inactive

Input: What do we get for O=C(Oc1ccccc1C(=S)N1CCCCC1)c1cc([N+](=O)[O-])cc([N+](=O)[O-])c1 ?
Output: inactive

Input: What do we get for Cc1cccc(N2CCN(Cc3nc(C4CC4)no3)CC2)n1 ?
Output: inactive

Input: What do we get for FC(F)(F)c1nc(-c2ccccc2)ncc1-c1nnnn1-c1ccccc1 ?
Output: inactive

Input: What do we get for O=C(CCN1C(=O)c2ccccc2C1=O)NNC(=O)c1ccc(Cl)cc1Cl ?
Output: inactive

Input: What do we get for Oc1c(Br)cc(/C=N/NC(=S)NCC2CCCO2)cc1Br (configuration not stated) ?
Output: inactive

Input: What do we get for COCCNc1nc(-c2ccccc2)nc2c1oc1ccccc12 ?
Output: inactive

Input: What do we get for CSc1sc(C(=O)NC(=O)NCc2cccnc2)c(C)c1-c1ccon1 ?
Output: inactive

Input: What do we get for Cc1cc(OC(=O)c2ccccc2)c([N+](=O)[O-])c(=O)[nH]1 ?
Output: active

Input: What do we get for COc1ccccc1OCC(=O)O/N=C(\N)c1ccccn1 ?
Output: inactive

Input: What do we get for O=C(Nc1ccc(N2CCOCC2)nc1)c1c(F)cccc1F ?
Output: inactive

Input: What do we get for C/C(=N\NC(N)=S)c1ccncc1 ?
Output: inactive

Input: What do we get for Cc1onc(-c2c(Cl)cccc2Cl)c1C(=O)NNC(=O)c1c(-c2c(Cl)cccc2Cl)noc1C ?
Output: inactive

Input: What do we get for Cc1cc(C)cc(OCC(=O)NNC(=O)CCN2C(=O)c3ccccc3C2=O)c1 ?
Output: active

Input: What do we get for COC(=O)N(NC(=O)C(O)(C(C)C)C(C)C)c1ccccc1 ?
Output: inactive

Input: What do we get for CCNC(=O)CCc1nc(-c2ccc(C)cc2)no1 ?
Output: inactive

Input: What do we get for CCN(CC)CCn1cnc2c1c(=O)n(CCOC(=O)c1cc(OC)c(OC)c(OC)c1)c(=O)n2C ?
Output: inactive

Input: What do we get for Nc1ccccc1SC(C[N+](=O)[O-])c1ccccc1 (configuration not stated) ?
Output: inactive

Input: What do we get for COc1ccccc1C1CCN(c2ccc([N+](=O)[O-])cn2)CC1 ?
Output: inactive

Input: What do we get for CC(C)C[C@H](CO)Nc1nc(N(C)c2cccc(Cl)c2)c2ncn(C(C)C)c2n1 ?
Output: inactive

Input: What do we get for Cc1cc(C)nc(S/C=C/C(=O)c2ccccc2)n1 ?
Output: active

Input: What do we get for S=c1[nH]nc(-c2cccs2)n1/N=C/c1cn(-c2ccccc2)nc1-c1ccc(Cl)cc1 ?
Output: inactive

Input: What do we get for O=C(N/N=C/c1ccccn1)c1cccnc1 ?
Output: inactive

Input: What do we get for Cc1ccc(NC(=O)OCc2cncs2)cc1 ?
Output: inactive

Input: What do we get for Cc1nnc(C)c2c(C)n(N)c(C)c12 ?
Output: inactive

* * *

# experimental.system: E3 ubiquitin-protein ligase Mdm2 (Homo sapiens) (UniProt Q00987)
# assay.notes: increase of MDM2 autoubiquitination reporter luminescence – cell-based, 1536-well, MDM2 E3 ligase inhibitor project, primary screen (AID 1230);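 also: luminescence tracks abundance of the self-degrading MDM2-luciferase fusion protein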
# experimental.parameters: cell-based MDM2 ubiquitination luciferase reporter, 2 h; at 5 µM; hits give high values; 0 = plate control, 100 = twice control, blank-subtracted
Hit rate of the full screen: of about 210,000 compounds, about 220 (0.1%) were called active. The sample as a whole holds a higher share of actives than the screen did.
Please provide measured signal enhancement for the entries that follow.
Expressed in %, but write only the number.

Input: Which measured signal enhancement value corresponds to O=C(O)C#Cc1cccc2ccccc12 ?
Output: -21.3

Input: What do we get for Cn1c(C(=O)NCCCN2CCCCC2)cc2sccc21 ?
Output: -19.5

Input: What do we get for CCOC(=O)CN(C(=O)COc1nc(C)cc(C)c1C#N)c1ccc(Cl)cc1 ?
Output: -12.8

Input: What do we get for CCCc1nc2c(c(=O)c3ccccc3n2C)c(=O)n1-c1cc(C)cc(C)c1 ?
Output: -9.46

Input: What do we get for Cc1cc(C)cc(NS(=O)(=O)c2ccc(F)cc2)c1 ?
Output: -8.71

Input: What do we get for Brc1ccc2c(c1)[C@H]1OCC[C@H]1[C@@H](c1cccs1)N2 ?
Output: -17.3

Input: What do we get for O=S(=O)(c1ccccc1)N1CN(Cc2ccc(F)cc2)c2nc3ccccc3nc21 ?
Output: -0.23

Input: What do we get for O=C(CCS(=O)(=O)Cc1ccccc1F)NCCCN1CCCCC1 ?
Output: 35.1

Hey, just so you know, these numbers are from PubChem BioAssay AID1230.
